target: KAT7 (Homo sapiens (Human), UniProt O95251); test: KAT assay (SAMDI mass spectrometry), KAT7; type: biochemical; settings: read-out: KAT7 Ki at 1 μM AcCoA;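 also: Baculovirus-expressed enzyme acetylating a histone peptide at room temperature, percent conversion from product and substrate peak areas, Ki from a Morrison tight-binding competitive fit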
Sequence (O95251 whole entry): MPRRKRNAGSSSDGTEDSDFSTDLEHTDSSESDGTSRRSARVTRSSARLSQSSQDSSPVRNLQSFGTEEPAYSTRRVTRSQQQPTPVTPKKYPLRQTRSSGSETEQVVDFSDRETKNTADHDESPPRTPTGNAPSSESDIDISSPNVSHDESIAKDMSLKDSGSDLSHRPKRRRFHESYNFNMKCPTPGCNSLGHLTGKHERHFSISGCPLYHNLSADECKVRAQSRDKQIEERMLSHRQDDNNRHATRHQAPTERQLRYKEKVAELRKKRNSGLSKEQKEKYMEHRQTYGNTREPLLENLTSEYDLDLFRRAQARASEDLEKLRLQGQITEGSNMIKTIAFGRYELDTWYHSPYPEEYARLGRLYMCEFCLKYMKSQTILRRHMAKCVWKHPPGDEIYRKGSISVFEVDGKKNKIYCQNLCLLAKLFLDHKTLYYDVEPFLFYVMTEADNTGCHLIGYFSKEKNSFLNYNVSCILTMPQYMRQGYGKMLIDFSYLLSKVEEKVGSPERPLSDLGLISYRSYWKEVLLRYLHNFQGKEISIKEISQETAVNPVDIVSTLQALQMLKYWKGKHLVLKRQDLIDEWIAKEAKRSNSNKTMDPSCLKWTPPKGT
Entries annotated with measured Ki
Write the number in nM without appending the unit.

Worked examples follow.
- molecule: "COc1ccccc1S(=O)(=O)Nc1noc2cc(Cn3cccn3)c(F)c(OC)c12"
  targetUnderTest: "KAT7 (Homo sapiens (Human), UniProt O95251)"
  Ki / nM: 10.6
- molecule: "COc1ccc(C)cc1S(=O)(=O)Nc1noc2cc(Cn3cccn3)cc(OC)c12"
  targetUnderTest: "KAT7 (Homo sapiens (Human), UniProt O95251)"
  Ki / nM: 90
- molecule: "COCc1ccc(OC)c(S(=O)(=O)Nc2noc3cc(Cn4cccn4)cc(OC)c23)c1"
  targetUnderTest: "KAT7 (Homo sapiens (Human), UniProt O95251)"
  Ki / nM: 920
- molecule: "COc1cc(C)ccc1S(=O)(=O)Nc1noc2cc(Cn3cccn3)cc(OC)c12"
  targetUnderTest: "KAT7 (Homo sapiens (Human), UniProt O95251)"
  Ki / nM: 40
- molecule: "COc1cccc(S(=O)(=O)Nc2noc3cc(Cn4cccn4)cc(OC)c23)c1"
  targetUnderTest: "KAT7 (Homo sapiens (Human), UniProt O95251)"
  Ki / nM: 220
- molecule: "COc1cc(Cn2cccn2)cc2onc(NS(=O)(=O)c3cccc4c(C)ccnc34)c12"
  targetUnderTest: "KAT7 (Homo sapiens (Human), UniProt O95251)"
  Ki / nM: 40

Now for another entry.
For the molecule COc1cc(Cn2cccn2)cc2onc(NS(=O)(=O)c3cccc(C)c3C#N)c12 , what Ki is on record? 330

###

// reported pKi for each item listed
target: KAT6A (Homo sapiens (Human)); test: KAT assay (SAMDI mass spectrometry), KAT6A; assay type: biochemical; details: read-out: KAT6a Ki at 10 μM AcCoA; 10 μM AcCoA
In plain terms, pKi is the concentration in mol/L turned into minus its base-10 logarithm.

Please review the following examples before continuing.
- smilesCode: "COc1cccc(S(=O)(=O)Nc2noc3cc(Cn4cccn4)cc(OC)c23)c1"
  pKi: 8.20
- smilesCode: "COc1cc(C2CC2)cc(OC)c1S(=O)(=O)Nc1noc2cc(Cn3cccn3)cc(OC)c12"
  pKi: 9.34
- smilesCode: "COc1ccc(O)c(OC)c1S(=O)(=O)Nc1noc2cc(Cn3cccn3)cc(OC)c12"
  pKi: 9.29
- smilesCode: "COc1cccc(O)c1S(=O)(=O)Nc1noc2cc(Cn3cccn3)cc(OC)c12"
  pKi: 8.41
- smilesCode: "COc1cccc(OC)c1S(=O)(=O)Nc1noc2cc(Cn3cccn3)c(C)cc12"
  pKi: 9.17

So what pKi did COc1cc(Cn2cccn2)cc2onc(NS(=O)(=O)c3cccc(F)c3Cl)c12 get with KAT6A (Homo sapiens (Human))? 7.96

Under KAT6A (Homo sapiens (Human)): pKi value of COc1cc(S(=O)(=O)Nc2noc3cc(Cn4cccn4)cc(OC)c23)ccc1F ? 7.91

Notebook: pull reported pKi for KAT6A (Homo sapiens (Human)), entry COc1cc(Cn2cccn2)cc2onc(NS(=O)(=O)c3c(C)ccc4cccnc34)c12 8.77

###

biological target: KAT6A (Homo sapiens (Human), UniProt Q92794); test: KAT assay (SAMDI mass spectrometry), KAT6A; format: biochemical; conditions: read-out: KAT6a Ki at 1 μM AcCoA; 1 μM AcCoA;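 also: Baculovirus-expressed KAT6A acetylating histone H3 (1-21) peptide (2 µM), 30-60 min at room temperature, % product conversion fitted to Morrison equation for tight-binding competitive inhibitors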
Sequence (Q92794 whole entry): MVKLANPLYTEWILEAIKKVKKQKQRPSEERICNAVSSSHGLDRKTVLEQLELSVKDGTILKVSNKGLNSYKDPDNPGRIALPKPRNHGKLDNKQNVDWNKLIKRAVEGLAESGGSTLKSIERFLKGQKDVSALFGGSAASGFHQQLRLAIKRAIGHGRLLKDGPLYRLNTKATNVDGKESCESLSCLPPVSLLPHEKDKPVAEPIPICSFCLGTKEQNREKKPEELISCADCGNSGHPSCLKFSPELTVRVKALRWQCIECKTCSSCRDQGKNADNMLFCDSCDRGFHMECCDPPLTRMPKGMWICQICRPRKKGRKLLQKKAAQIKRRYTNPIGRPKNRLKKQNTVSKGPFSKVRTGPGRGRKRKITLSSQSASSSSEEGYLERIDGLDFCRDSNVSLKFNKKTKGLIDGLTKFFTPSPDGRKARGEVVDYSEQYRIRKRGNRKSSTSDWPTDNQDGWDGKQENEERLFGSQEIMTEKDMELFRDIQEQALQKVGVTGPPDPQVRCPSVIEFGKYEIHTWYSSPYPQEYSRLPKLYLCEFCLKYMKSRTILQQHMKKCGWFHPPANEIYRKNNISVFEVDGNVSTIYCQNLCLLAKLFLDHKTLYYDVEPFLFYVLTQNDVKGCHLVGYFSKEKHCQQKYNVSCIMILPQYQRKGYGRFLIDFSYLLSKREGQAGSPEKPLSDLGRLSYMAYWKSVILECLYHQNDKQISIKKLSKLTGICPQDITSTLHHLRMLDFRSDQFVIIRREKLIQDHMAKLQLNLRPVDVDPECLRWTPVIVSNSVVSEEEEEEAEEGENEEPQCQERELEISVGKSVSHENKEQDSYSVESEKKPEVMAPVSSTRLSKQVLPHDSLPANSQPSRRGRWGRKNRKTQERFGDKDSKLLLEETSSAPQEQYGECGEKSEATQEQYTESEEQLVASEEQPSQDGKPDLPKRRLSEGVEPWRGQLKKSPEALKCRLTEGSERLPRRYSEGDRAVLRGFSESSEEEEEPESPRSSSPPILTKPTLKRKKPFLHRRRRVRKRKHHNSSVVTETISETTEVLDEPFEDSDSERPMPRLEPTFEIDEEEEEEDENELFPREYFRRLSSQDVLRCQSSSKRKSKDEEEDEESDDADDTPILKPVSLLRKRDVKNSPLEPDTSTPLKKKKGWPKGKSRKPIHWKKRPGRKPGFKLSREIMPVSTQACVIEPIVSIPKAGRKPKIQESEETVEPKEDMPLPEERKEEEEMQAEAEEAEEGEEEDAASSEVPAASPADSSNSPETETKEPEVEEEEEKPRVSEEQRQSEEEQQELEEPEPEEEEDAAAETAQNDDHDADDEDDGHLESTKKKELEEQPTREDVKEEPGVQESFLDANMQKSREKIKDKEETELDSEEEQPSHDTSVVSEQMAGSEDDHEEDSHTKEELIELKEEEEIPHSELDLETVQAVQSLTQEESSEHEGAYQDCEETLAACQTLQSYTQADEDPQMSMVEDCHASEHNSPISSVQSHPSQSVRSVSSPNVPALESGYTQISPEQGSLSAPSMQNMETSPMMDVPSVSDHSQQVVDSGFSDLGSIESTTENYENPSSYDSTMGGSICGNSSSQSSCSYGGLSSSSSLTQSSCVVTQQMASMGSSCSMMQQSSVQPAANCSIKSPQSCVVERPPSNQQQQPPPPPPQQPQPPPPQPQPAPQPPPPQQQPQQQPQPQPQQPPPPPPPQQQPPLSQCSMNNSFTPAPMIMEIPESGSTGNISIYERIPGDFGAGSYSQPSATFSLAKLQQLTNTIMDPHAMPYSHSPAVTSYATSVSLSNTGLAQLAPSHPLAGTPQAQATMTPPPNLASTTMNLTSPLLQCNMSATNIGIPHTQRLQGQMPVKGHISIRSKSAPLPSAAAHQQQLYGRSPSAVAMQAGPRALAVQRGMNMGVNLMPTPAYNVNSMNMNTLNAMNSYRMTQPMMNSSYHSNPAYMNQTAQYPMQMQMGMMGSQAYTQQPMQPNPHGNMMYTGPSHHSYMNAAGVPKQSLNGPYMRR
Catalogue of pKi readings, one per entry.
Remember, pKi is on a log scale: it is -log10 of the molar concentration.

For orientation, consider the following solved cases.
- compound: "COCc1ccc(OC)c(S(=O)(=O)Nc2noc3cc(Cn4cccn4)ccc23)c1 [Example 37]"
  propertyName: "pKi"
  resultNumber: 7.77
- compound: "COc1cc(Cn2cccn2)cc2onc(NS(=O)(=O)c3cccc(C(F)(F)F)c3)c12 [Example 53]"
  propertyName: "pKi"
  resultNumber: 7.79
- compound: "COc1ccccc1S(=O)(=O)Nc1noc2cc(Cn3cccn3)c(C)cc12 [Example 132]"
  propertyName: "pKi"
  resultNumber: 8.39
- compound: "CCc1cc(S(=O)(=O)Nc2noc3cc(Cn4cccn4)cc(OC)c23)c(OC)cc1OC [Example 15]"
  propertyName: "pKi"
  resultNumber: 9.19
- compound: "COc1ccc(Cl)cc1S(=O)(=O)Nc1noc2cc(Cn3cccn3)ccc12 [Example 36]"
  propertyName: "pKi"
  resultNumber: 7.77
- compound: "COc1ccc(C)cc1S(=O)(=O)Nc1noc2cc(Cn3cccn3)cc(OC)c12 [Example 17]"
  propertyName: "pKi"
  resultNumber: 9.15
- compound: "COc1cccc(OC)c1S(=O)(=O)Nc1noc2cc(Cc3cnccn3)cc(OC)c12 [Example 111]"
  propertyName: "pKi"
  resultNumber: 7.89
- compound: "COc1cc(Cn2cccn2)cc2onc(NS(=O)(=O)c3cc(C)cc(C)c3)c12 [Example 48]"
  propertyName: "pKi"
  resultNumber: 7.83
- compound: "COc1cc2c(cc1S(=O)(=O)Nc1noc3cc(Cn4cccn4)cc(OC)c13)CCOC2 [Example 43]"
  propertyName: "pKi"
  resultNumber: 8.44
- compound: "COc1ccccc1S(=O)(=O)Nc1noc2cc(Cn3cccn3)c(F)c(OC)c12 [Example 129]"
  propertyName: "pKi"
  resultNumber: 9.48

Item COc1cccc(O)c1S(=O)(=O)Nc1noc2cc(Cn3cccn3)cc(OC)c12 [Example 104] has what recorded pKi? 8.21

Record request: pKi value, item CCc1nc2cc(S(=O)(=O)Nc3noc4cc(Cn5cccn5)cc(OC)c34)ccc2o1 [Example 81] 7.74

I am curious: what pKi value has been reported for COc1cc(Cn2cccn2)cc2onc(NS(=O)(=O)c3cccc(F)c3C)c12 [Example 56] ? 7.83

If you can, please state the reported pKi value of COc1cccc(OC)c1S(=O)(=O)Nc1noc2cc(Cc3cc[nH]n3)cc(OC)c12 [Example 119] . 7.68

Quick check: pKi of COc1cccc(S(=O)(=O)Nc2noc3cc(Cn4cccn4)cc(OC)c23)c1 [Example 59] ? 7.89

Query: pKi; subject: COc1cccc(OC)c1S(=O)(=O)Nc1noc2cc(C(O)c3cnccn3)cc(OC)c12 (centres unmarked) [Example 123] 6.86

Report pKi for COc1cc(Cn2cccn2)cc2onc(NS(=O)(=O)c3cc(C)ccc3F)c12 [Example 58] please. 7.95
